Recorded measurements of pKi, one per entry
ASSAY TARGET: Cannabinoid receptor 1 (Rattus norvegicus, UniProt P20272)
Sequence (P20272 whole entry): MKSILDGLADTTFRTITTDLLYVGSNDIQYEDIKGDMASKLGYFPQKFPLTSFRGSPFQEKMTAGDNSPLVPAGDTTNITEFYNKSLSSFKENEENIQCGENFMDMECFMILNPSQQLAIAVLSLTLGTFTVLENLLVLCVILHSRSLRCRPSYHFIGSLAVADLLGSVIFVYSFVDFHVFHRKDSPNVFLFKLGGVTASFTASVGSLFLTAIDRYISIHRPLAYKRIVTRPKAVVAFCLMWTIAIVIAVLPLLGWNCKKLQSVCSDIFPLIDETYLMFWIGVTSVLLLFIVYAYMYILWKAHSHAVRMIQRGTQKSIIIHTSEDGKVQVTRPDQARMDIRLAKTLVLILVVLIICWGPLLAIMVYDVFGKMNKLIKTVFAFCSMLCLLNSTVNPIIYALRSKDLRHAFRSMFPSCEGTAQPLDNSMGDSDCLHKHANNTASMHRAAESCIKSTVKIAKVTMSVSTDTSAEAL
Reminder that pKi means the negative base-10 logarithm of the concentration expressed in mol/L.

c1ccc2c(NCc3cn(CCN4CCOCC4)c4ccccc34)cccc2c1; 7.31
COc1ccc(NCc2cn(CCN3CCOCC3)c3ccccc23)cc1; 7.37
COc1ccc(/N=C2\C(=O)N(CCN3CCOCC3)c3ccc(C)cc32)cc1; 6.41

Quick note, pKi for O=C1/C(=N\c2cccc3ccccc23)c2ccccc2N1CCN1CCOCC1 landed at 6.26

Form field pKi, entry Cc1ccc2c(c1)/C(=N/c1cccc3ccccc13)C(=O)N2CCN1CCOCC1 : 7.16

Record summary for COc1ccc(/N=C2\C(=O)N(CCN3CCOCC3)c3ccccc32)cc1 : reported pKi = 6.51

Record COc1ccc(/N=C2\C(=O)N(CCN3CCOCC3)c3ccc(Cl)cc32)cc1 , field pKi: 7.13

For this compound ( Cc1ccc(NCc2cn(CCN3CCOCC3)c3ccccc23)cc1 ), measured pKi is 7.80

Form field pKi, entry Clc1ccc(NCc2cn(CCN3CCOCC3)c3ccccc23)cc1 : 7.62

Lab book: pKi of O=C1/C(=N\c2cccc3ccccc23)c2cc(Cl)ccc2N1CCN1CCOCC1 noted as 8.08
